Let's look at some sequences and their measured recombinant barcode read abundance (log10).
# experiment.notes: recombinant barcode read abundance after kanamycin selection (control-corrected) (log10(CPM+1)); higher = more efficient recombination; sequences stand for … in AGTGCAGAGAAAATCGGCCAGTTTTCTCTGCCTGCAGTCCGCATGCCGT…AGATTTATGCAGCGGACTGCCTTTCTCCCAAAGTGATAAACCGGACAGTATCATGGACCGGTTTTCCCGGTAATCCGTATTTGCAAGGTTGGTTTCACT; site = the 11-nt target;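 note: IS621 recombinase and bridge RNA in Escherichia coli cells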
measured.endpoint: recombinant barcode read abundance (log10)

>  <sequence.text>
GAGTTCGCTTGGGTTCTAACCTGTTGCGG (site TAGTCCGCTCC)

>  <assay.result>
0

$$$$
>  <sequence.text>
TACGCCTCTTGGGTTCTAACCTGTTGCCT (site GACGCCTCTAG)

>  <assay.result>
0.249

$$$$
>  <sequence.text>
TGGAGCCCTTGGGTTCTAACCTGTTGCAC (site TGGAGCCCTTT)

>  <assay.result>
0.0674

$$$$
>  <sequence.text>
AGTAAGACTTGGGTTCTAACCTGTTGCCT (site AGTAAGACTAG)

>  <assay.result>
1.69

$$$$
>  <sequence.text>
TCACGTCCTTGGGTTCTAACCTGTTGCCT (site TCACGTCCTAC)

>  <assay.result>
0.0778

$$$$
>  <sequence.text>
CGGCCCTCTTGGGTTCTAACCTGTTGCCT (site CCGCCCTCTAG)

>  <assay.result>
0.29

$$$$
>  <sequence.text>
GTCGCCTCTTGGGTTCTAACCTGTTGCCT (site GTCTCCTCTAG)

>  <assay.result>
0.0886

$$$$
>  <sequence.text>
GGTCGTGCTTGGGTTCTAACCTGTTGCCT (site GGTCGTGCTAG)

>  <assay.result>
1.14

$$$$
>  <sequence.text>
GAGAGGTCTTGGGTTCTAACCTGTTGCGT (site GAGAGGTCTAG)

>  <assay.result>
0.613

$$$$
>  <sequence.text>
TGATAGCCTTGGGTTCTAACCTGTTGCCT (site TGATAGCCTAG)

>  <assay.result>
0.901

$$$$
>  <sequence.text>
TGCCTATCTTGGGTTCTAACCTGTTGCCT (site TACCTATCTAG)

>  <assay.result>
0.234

$$$$
>  <sequence.text>
ACTGTAACTTGGGTTCTAACCTGTTGCTT (site ACTGTAACTAA)

>  <assay.result>
1.06

$$$$
>  <sequence.text>
TATTGGACTTGGGTTCTAACCTGTTGCAA (site TATTGGACTGT)

>  <assay.result>
0.0217

$$$$
>  <sequence.text>
GAGCGAGCTTGGGTTCTAACCTGTTGCTG (site GAGCGAGCTCA)

>  <assay.result>
1.5

$$$$
>  <sequence.text>
GTCCAGCCTTGGGTTCTAACCTGTTGCAC (site CAAAGAGCTCA)

>  <assay.result>
0.291

$$$$
>  <sequence.text>
TGACGTCCTTGGGTTCTAACCTGTTGCAT (site TGACGTCCTAG)

>  <assay.result>
0.0926

$$$$
>  <sequence.text>
CTACTAACTTGGGTTCTAACCTGTTGCCT (site CTACTAACTAT)

>  <assay.result>
0.182

$$$$
>  <sequence.text>
ACGCGAGCTTGGGTTCTAACCTGTTGCGG (site ACGCGAGCTCT)

>  <assay.result>
0.423

$$$$
>  <sequence.text>
TGGAACCCTTGGGTTCTAACCTGTTGCGG (site TGGAACCCTCC)

>  <assay.result>
0.706

$$$$
>  <sequence.text>
CATTCCTCTTGGGTTCTAACCTGTTGCCT (site CCTTCCTCTAG)

>  <assay.result>
0.122

$$$$
>  <sequence.text>
CACTGCTCTTGGGTTCTAACCTGTTGCCT (site CACTGCTCTAG)

>  <assay.result>
1.58

$$$$
>  <sequence.text>
CACTTAACTTGGGTTCTAACCTGTTGCCT (site CACTTAGCTAG)

>  <assay.result>
0.0439

$$$$
>  <sequence.text>
GGAGGGACTTGGGTTCTAACCTGTTGCCT (site GTAGGGACTAG)

>  <assay.result>
1.7

$$$$
>  <sequence.text>
TCTTGTCCTTGGGTTCTAACCTGTTGCGC (site TCTTGTCCTGC)

>  <assay.result>
0.385

$$$$
>  <sequence.text>
CTCCGGACTTGGGTTCTAACCTGTTGCCT (site CTCCGTACTAG)

>  <assay.result>
0.276

$$$$
>  <sequence.text>
CAGTCTACTTGGGTTCTAACCTGTTGCGT (site CAGTCTACTAC)

>  <assay.result>
0.308

$$$$
>  <sequence.text>
CCGAAGCCTTGGGTTCTAACCTGTTGCCT (site CCGGAGCCTAG)

>  <assay.result>
0.144

$$$$
>  <sequence.text>
GAGCGAGCTTGGGTTCTAACCTGTTGCGG (site GAGCGAGCTCC)

>  <assay.result>
1.13

$$$$
>  <sequence.text>
TACCTATCTTGGGTTCTAACCTGTTGCCT (site TTCCTATCTAG)

>  <assay.result>
0.429

$$$$
>  <sequence.text>
ACCGGTACTTGGGTTCTAACCTGTTGCCT (site ACCGGTACTAG)

>  <assay.result>
0.508

$$$$
>  <sequence.text>
TATCGCACTTGGGTTCTAACCTGTTGCCT (site TATGGGACTAG)

>  <assay.result>
0.0986

$$$$
>  <sequence.text>
CTCGTACCTTGGGTTCTAACCTGTTGCGG (site CTCGTAGCTCC)

>  <assay.result>
0.0696

$$$$
>  <sequence.text>
ACAGTAGCTTGGGTTCTAACCTGTTGCTG (site ACATTAGCTCA)

>  <assay.result>
0.0402

$$$$
>  <sequence.text>
TGGTATGCTTGGGTTCTAACCTGTTGCCT (site TGGTATCCTAG)

>  <assay.result>
0.0685

$$$$
>  <sequence.text>
TAGTGTTCTTGGGTTCTAACCTGTTGCAT (site TAGTGTCCTAT)

>  <assay.result>
0.109

$$$$
>  <sequence.text>
CGCTCGTCTTGGGTTCTAACCTGTTGCCT (site CGCTGGTCTAG)

>  <assay.result>
0.0376

$$$$
>  <sequence.text>
GAGCGAGCTTGGGTTCTAACCTGTTGCTG (site GAGCGAGCTCC)

>  <assay.result>
0.41

$$$$
>  <sequence.text>
TAGGCCACTTGGGTTCTAACCTGTTGCAT (site TAGGCCACTAT)

>  <assay.result>
1.39

$$$$
>  <sequence.text>
TCCCGAACTTGGGTTCTAACCTGTTGCCT (site TCCCGACCTAG)

>  <assay.result>
0.337

$$$$
>  <sequence.text>
ATTTGCACTTGGGTTCTAACCTGTTGCCT (site ATTTGGACTAG)

>  <assay.result>
0.0348

$$$$
>  <sequence.text>
TTGGTCCCTTGGGTTCTAACCTGTTGCCT (site TTGGTCCCTAG)

>  <assay.result>
2.93

$$$$
>  <sequence.text>
ACAGAGGCTTGGGTTCTAACCTGTTGCCG (site ACAGAGGCTCG)

>  <assay.result>
1.12

$$$$

###

# experiment.notes: recombinant barcode read abundance after kanamycin selection (control-corrected) (log10(CPM+1)); higher = more efficient recombination; sequences stand for … in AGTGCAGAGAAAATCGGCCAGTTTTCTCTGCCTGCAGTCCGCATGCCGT…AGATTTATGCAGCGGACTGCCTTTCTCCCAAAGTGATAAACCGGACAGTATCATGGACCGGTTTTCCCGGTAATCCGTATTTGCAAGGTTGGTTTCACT; site = the 11-nt target
The label depends only on recombinant barcode read abundance (log10): class 1 if it is at least 0.3, class 0 if it is smaller.

>  <sequence.text>
TCCGAGGCTTGGGTTCTAACCTGTTGCTG (site TCAGAGGCTCA)

>  <class.assignment>
class 0

$$$$
>  <sequence.text>
GTAACCTCTTGGGTTCTAACCTGTTGCCT (site GTAACCTCTGG)

>  <class.assignment>
class 0

$$$$
>  <sequence.text>
CTAGGCCCTTGGGTTCTAACCTGTTGCTT (site CTAGGCCCTAT)

>  <class.assignment>
class 1

$$$$
>  <sequence.text>
AGAACGTCTTGGGTTCTAACCTGTTGCCT (site AGAATGTCTAG)

>  <class.assignment>
class 0

$$$$
>  <sequence.text>
AATGATTCTTGGGTTCTAACCTGTTGCGT (site AATGATTCTAC)

>  <class.assignment>
class 1

$$$$
>  <sequence.text>
GTTTCGACTTGGGTTCTAACCTGTTGCTA (site TCGGATGCTAT)

>  <class.assignment>
class 0

$$$$
>  <sequence.text>
GACACGTCTTGGGTTCTAACCTGTTGCCT (site GACACCTCTAA)

>  <class.assignment>
class 0

$$$$
>  <sequence.text>
CGGCTCACTTGGGTTCTAACCTGTTGCCT (site CGGCTCACTAG)

>  <class.assignment>
class 1

$$$$
>  <sequence.text>
GGTTGGCCTTGGGTTCTAACCTGTTGCGG (site GGTTGTCCTCC)

>  <class.assignment>
class 0

$$$$
>  <sequence.text>
TAGGTGCCTTGGGTTCTAACCTGTTGCAT (site TAGGTACCTAT)

>  <class.assignment>
class 1

$$$$
>  <sequence.text>
GTGGTACCTTGGGTTCTAACCTGTTGCAT (site GTGGTACCTAT)

>  <class.assignment>
class 1

$$$$
>  <sequence.text>
TAGTTTACTTGGGTTCTAACCTGTTGCCA (site TAGTTTACTTG)

>  <class.assignment>
class 1

$$$$
>  <sequence.text>
TAGGCCACTTGGGTTCTAACCTGTTGCGT (site TAGGCCACTAG)

>  <class.assignment>
class 0

$$$$
>  <sequence.text>
GAGGACTCTTGGGTTCTAACCTGTTGCCG (site GAGGACTCTGG)

>  <class.assignment>
class 1

$$$$
>  <sequence.text>
CTTAGGACTTGGGTTCTAACCTGTTGCCT (site CTTAGGACTAG)

>  <class.assignment>
class 0

$$$$
>  <sequence.text>
CTACTTACTTGGGTTCTAACCTGTTGCCT (site CTAGTTACTAG)

>  <class.assignment>
class 0

$$$$
>  <sequence.text>
CCGTCGACTTGGGTTCTAACCTGTTGCCT (site ACGTCCACTAG)

>  <class.assignment>
class 0

$$$$
>  <sequence.text>
AGTCAGCCTTGGGTTCTAACCTGTTGCCT (site AGTGAGCCTAG)

>  <class.assignment>
class 1

$$$$
>  <sequence.text>
CTAACCTCTTGGGTTCTAACCTGTTGCTA (site CTAACCTCTGA)

>  <class.assignment>
class 1

$$$$
>  <sequence.text>
GTCATGTCTTGGGTTCTAACCTGTTGCCT (site GTCATGTCTAG)

>  <class.assignment>
class 1

$$$$
>  <sequence.text>
CACAGGGCTTGGGTTCTAACCTGTTGCGG (site CACATGGCTCG)

>  <class.assignment>
class 1

$$$$

Where do these numbers come from? They come from the supplement of paper PMC11208160.
